system: L1210 leukemia ip in BDF1 mice, survival T/C; assay: NCI In Vivo Anticancer Drug Screen. Data for tumor model L1210 Leukemia (intraperitoneal) in B6D2F1 (BDF1) mice; settings: endpoint: mean survival time; dose: 50.0 mg/kg/injection; schedule: Q01DX001 (ip); vehicle: saline; higher = longer survival
Inconclusive results and toxic doses are left out.
Field: T/C. Provide a value for each of the compounds that follow.

Compound	Target desc	T/C
COC1OC(COC(=O)c2ccc([N+](=O)[O-])cc2)C(OCc2ccccc2)C1OC(=O)c1ccc([N+](=O)[O-])cc1 (stereo not drawn)	L1210 leukemia ip in BDF1 mice, survival T/C	113 % of control
COC(=O)C1CCN(Cc2ccccc2)CC1=O (stereo not drawn)	L1210 leukemia ip in BDF1 mice, survival T/C	110 % of control
CC1OCCCCO1	L1210 leukemia ip in BDF1 mice, survival T/C	106 % of control

Can you give me T/C for all of these, one by one?
1. O=C(N/N=C\c1cc(=O)[nH]c(=O)[nH]1)c1ccncc1
2. O=C(O)C[P+](c1ccccc1)(c1ccccc1)c1ccccc1
3. O=C(O)/C=C/c1ccccc1Br
4. CC(=O)OC(C(C)=O)c1ccccc1 (stereo not drawn)
5. CN(C)C(=S)S
6. C1=CC(=P(c2ccccc2)(c2ccccc2)c2ccccc2)C=C1
7. Cc1[nH]c(=O)[nH]c(=O)c1CN(C)Cc1cc(Cl)cc(Cl)c1O

1: 90 % of control; 2: 106 % of control; 3: 97 % of control; 4: 101 % of control; 5: 100 % of control; 6: 92 % of control; 7: 95 % of control
